Tested on: CTV-1 (T-Lymphoblastic Leukemia)
Test: combination Emax (second highest fraction inhibited in the dose matrix, 72 h); higher = more inhibition; extreme values may be limits of the assay
Measured quantity: combination Emax

Sample answers from the record:
Compound	Measured
CC1(C)CCC(CN2CCN(c3ccc(C(=O)NS(=O)(=O)c4ccc(NCC5CCOCC5)c([N+](=O)[O-])c4)c(Oc4cnc5[nH]ccc5c4)c3)CC2)=C(c2ccc(Cl)cc2)C1 [Venetoclax] + Cc1cc2ncnn2cc1Nc1ncc2c(n1)n(C1CCOCC1)c(=O)n2C [AZD7648] (first compound max 1 µM, 7x7, partner max 10 µM)	0.362
CN(CCO)CC[C@H](CSc1ccccc1)Nc1ccc(S(=O)(=O)NC(=O)c2ccc(N3CCC([C@@H](O)c4ccccc4-c4ccc(Cl)cc4)CC3)cc2)cc1S(=O)(=O)C(F)(F)F [AZD4320] + C1CN(CCC1(C(=O)N[C@@H](CCO)C2=CC=C(C=C2)Cl)N)C3=NC=NC4=C3C=CN4 [Capivasertib] (first compound max 1 µM, 7x7, partner max 3 µM)	0.404
Cn1cnc2c(F)c(Nc3ccc(Br)cc3Cl)c(C(=O)NOCCO)cc21 [Selumetinib] + C=CCn1c(=O)c2cnc(Nc3ccc(N4CCN(C)CC4)cc3)nc2n1-c1cccc(C(C)(C)O)n1 [AZD1775] (first compound max 10 µM, partner max 1 µM)	0.963
CC1(C)CCC(CN2CCN(c3ccc(C(=O)NS(=O)(=O)c4ccc(NCC5CCOCC5)c([N+](=O)[O-])c4)c(Oc4cnc5[nH]ccc5c4)c3)CC2)=C(c2ccc(Cl)cc2)C1 [Venetoclax] + CCN(CCO)CCCOc1ccc2c(Nc3cc(CC(=O)Nc4cccc(F)c4)[nH]n3)ncnc2c1 [AZD2811] (first compound max 1 µM, 7x7, partner max 1 µM)	0.184
Cc1c2c(nn1C)CSCc1cc(n(C)n1)CSc1cc(c3ccccc3c1)OCCCc1c(C(=O)O)n(C)c3c-2c(Cl)ccc13 [AZD5991] + C=CCn1c(=O)c2cnc(Nc3ccc(N4CCN(C)CC4)cc3)nc2n1-c1cccc(C(C)(C)O)n1 [AZD1775] (first compound max 1 µM, partner max 1 µM)	0.925

Proceeding to the next compound to report its combination Emax.
Identify measured combination Emax corresponding to CCN(CCO)CCCOc1ccc2c(Nc3cc(CC(=O)Nc4cccc(F)c4)[nH]n3)ncnc2c1 [AZD2811] + C[C@@H]1COCCN1C2=NC(=NC(=C2)C3(CC3)[S@](=N)(=O)C)C4=C5C=CNC5=NC=C4 [AZD6738] (first compound max 1 µM, 7x7, partner max 10 µM) 0.84

---

System: DB (B-Cell Non-Hodgkin's Lymphoma)
Test: Bliss excess, mean over the matrix (fraction); higher = more synergy
Form field: Bliss excess (one value per entry).
Respond numerically, and do not add a unit to the figure.

Compound	Measured quantity	Measured
NC1(C(=O)N[C@@H](CCO)c2ccc(Cl)cc2)CCN(c2ncnc3[nH]ccc23)CC1 [Capivasertib] + C[C@@H]1COCCN1C2=NC(=NC(=C2)C3(CC3)[S@](=N)(=O)C)C4=C5C=CNC5=NC=C4 [AZD6738] (first compound max 10 µM, 7x7, partner max 10 µM)	Bliss excess	-0.0769
Cc1cc2ncnn2cc1Nc1ncc2c(n1)n(C1CCOCC1)c(=O)n2C [AZD7648] + CN(C)CCCOc1ccc(-c2ccc3ncc4c(c3c2)n(C2CCOCC2)c(=O)n4C)cn1 [AZD0156] (first compound max 10 µM, 7x7, partner max 1 µM)	Bliss excess	-0.0402

Identify measured Bliss excess corresponding to C[C@@H](Nc1cc(F)cc(F)c1)c1cc(C(=O)N(C)C)cc2c(=O)cc(N3CCOCC3)oc12 [AZD8186] + C1CN(CCC1(C(=O)N[C@@H](CCO)C2=CC=C(C=C2)Cl)N)C3=NC=NC4=C3C=CN4 [AZD5363] (first compound max 10 µM, 7x7, partner max 10 µM) -0.0191

Identify measured Bliss excess corresponding to CC1(C)CCC(CN2CCN(c3ccc(C(=O)NS(=O)(=O)c4ccc(NCC5CCOCC5)c([N+](=O)[O-])c4)c(Oc4cnc5[nH]ccc5c4)c3)CC2)=C(c2ccc(Cl)cc2)C1 [Venetoclax] + CN(C)CCCOc1ccc(-c2ccc3ncc4c(c3c2)n(C2CCOCC2)c(=O)n4C)cn1 [AZD0156] (first compound max 1 µM, 7x7, partner max 1 µM) -0.0166

Identify measured Bliss excess corresponding to CN(CCO)CC[C@H](CSc1ccccc1)Nc1ccc(S(=O)(=O)NC(=O)c2ccc(N3CCC([C@@H](O)c4ccccc4-c4ccc(Cl)cc4)CC3)cc2)cc1S(=O)(=O)C(F)(F)F [AZD4320] + CCN(CCO)CCCOc1ccc2c(Nc3cc(CC(=O)Nc4cccc(F)c4)[nH]n3)ncnc2c1 [AZD2811] (first compound max 1 µM, 7x7, partner max 1 µM) 0.0983

Identify measured Bliss excess corresponding to O=C(c1cc(Cc2n[nH]c(=O)c3ccccc23)ccc1F)N1CCN(C(=O)C2CC2)CC1 [Olaparib] + Cc1c2c(nn1C)CSCc1cc(n(C)n1)CSc1cc(c3ccccc3c1)OCCCc1c(C(=O)O)n(C)c3c-2c(Cl)ccc13 [AZD5991] (first compound max 10 µM, 7x7, partner max 1 µM) 0.0141

Identify measured Bliss excess corresponding to COc1cc2ncnc(Nc3ccc(F)c(Cl)c3)c2cc1OCCCN1CCOCC1 [Gefitinib] + CC(C)n1c(=O)n(C)c2cnc3cc(F)c(-c4ccc(OCCCN5CCCCC5)nc4)cc3c21 [AZD1390] (first compound max 10 µM, 7x7, partner max 0.3 µM) 0.0332

---

Tested on: TGBC24TKB (Biliary Tract Carcinoma)
Test: Bliss excess, mean over the matrix (fraction); higher = more synergy
Decision: Bliss excess >= 0.01 yields met, all other cases yield not met.

Consider the following illustrative entries.
Compound	Class assignment
NC1(C(=O)N[C@@H](CCO)c2ccc(Cl)cc2)CCN(c2ncnc3[nH]ccc23)CC1 [Capivasertib] + CC(=O)c1c(C)c2cnc(Nc3ccc(N4CCNCC4)cn3)nc2n(C2CCCC2)c1=O [Palbociclib] (first compound max 10 µM, 7x7, partner max 10 µM)	not met
Cc1c2c(nn1C)CSCc1cc(n(C)n1)CSc1cc(c3ccccc3c1)OCCCc1c(C(=O)O)n(C)c3c-2c(Cl)ccc13 [AZD5991] + C1CN(CCC1(C(=O)N[C@@H](CCO)C2=CC=C(C=C2)Cl)N)C3=NC=NC4=C3C=CN4 [Capivasertib] (first compound max 1 µM, 7x7, partner max 3 µM)	not met
COc1cc2ncnc(Nc3ccc(F)c(Cl)c3)c2cc1OCCCN1CCOCC1 [Gefitinib] + CC(C)n1c(=O)n(C)c2cnc3cc(F)c(-c4ccc(OCCCN5CCCCC5)nc4)cc3c21 [AZD1390] (first compound max 10 µM, 7x7, partner max 0.3 µM)	not met

Check this compound for Bliss excess at or above 0.01: C=CCn1c(=O)c2cnc(Nc3ccc(N4CCN(C)CC4)cc3)nc2n1-c1cccc(C(C)(C)O)n1 [AZD1775] + C1CN(CCC1(C(=O)N[C@@H](CCO)C2=CC=C(C=C2)Cl)N)C3=NC=NC4=C3C=CN4 [Capivasertib] (first compound max 3 µM, partner max 3 µM) not met

Check this compound for Bliss excess at or above 0.01: C[C@@H](c1ccc2nccn2c1)n1nnc2ncc(-c3cnn(C)c3)nc21 [Savolitinib] + CN(CC[C@H](CSC1=CC=CC=C1)NC2=C(C=C(C=C2)S(=O)(=O)NC(=O)C3=CC=C(C=C3)N4CCC(CC4)[C@H](C5=CC=CC=C5C6=CC=C(C=C6)Cl)O)S(=O)(=O)C(F)(F)F)CCO [AZD4320] (first compound max 1 µM, 7x7, partner max 1 µM) met

Check this compound for Bliss excess at or above 0.01: COc1nnc2ccc(N3CCC(c4ccc(OCCN5CCN(C)C(=O)[C@H]5C)cc4)CC3)nn12 [AZD5153] + Cn1cnc2c(F)c(Nc3ccc(Br)cc3Cl)c(C(=O)NOCCO)cc21 [Selumetinib] (first compound max 1 µM, 7x7, partner max 10 µM) met

Check this compound for Bliss excess at or above 0.01: Cc1c2c(nn1C)CSCc1cc(n(C)n1)CSc1cc(c3ccccc3c1)OCCCc1c(C(=O)O)n(C)c3c-2c(Cl)ccc13 [AZD5991] + Cn1cnc2c(F)c(Nc3ccc(Br)cc3Cl)c(C(=O)NOCCO)cc21 [Selumetinib] (first compound max 1 µM, 7x7, partner max 3 µM) met

---

System: MDA-MB-231 (Breast Carcinoma)
Test: combination Emax (second highest fraction inhibited in the dose matrix, 72 h); higher = more inhibition; extreme values may be limits of the assay
Form field: combination Emax (one value per entry).
Respond numerically, and do not add a unit to the figure.

Compound	Measured quantity	Measured
CN(CCO)CC[C@H](CSc1ccccc1)Nc1ccc(S(=O)(=O)NC(=O)c2ccc(N3CCC([C@@H](O)c4ccccc4-c4ccc(Cl)cc4)CC3)cc2)cc1S(=O)(=O)C(F)(F)F [AZD4320] + C1CN(CCC1(C(=O)N[C@@H](CCO)C2=CC=C(C=C2)Cl)N)C3=NC=NC4=C3C=CN4 [Capivasertib] (first compound max 1 µM, 7x7, partner max 3 µM)	combination Emax	0.376
CN(CCO)CC[C@H](CSc1ccccc1)Nc1ccc(S(=O)(=O)NC(=O)c2ccc(N3CCC([C@@H](O)c4ccccc4-c4ccc(Cl)cc4)CC3)cc2)cc1S(=O)(=O)C(F)(F)F [AZD4320] + C[C@@H](Nc1cc(F)cc(F)c1)c1cc(C(=O)N(C)C)cc2c(=O)cc(N3CCOCC3)oc12 [AZD8186] (first compound max 1 µM, 7x7, partner max 3 µM)	combination Emax	0.808

Proceeding to the next compound to report its combination Emax.
Identify measured combination Emax corresponding to COc1cccc(OCCCN)c1-c1cc(Nc2cnc(C#N)cn2)n[nH]1 [Prexasertib] + O=C(c1cc(Cc2n[nH]c(=O)c3ccccc23)ccc1F)N1CCN(C(=O)C2CC2)CC1 [Olaparib] (first compound max 1 µM, 7x7, partner max 10 µM) 0.639

meta.source: the supplement of paper PMC11061612
